Reported pKi values for a set of compounds
System Name: D(2) dopamine receptor (Homo sapiens)
Protocol: Ability to displace [3H]spiperone from the cloned human Dopamine receptor D2L stably expressed in Chinese hamster ovary (CHO) cells was determined.
Assay type: cell-based
Hey, just a heads up that pKi is the negative log base 10 of the concentration in molar.

# input Give me measured pKi, please, for this compound: `N#CC(C#N)=Cc1cc(CN2CCN(c3ccc(Cl)cc3)CC2)c[nH]1`
# output 5.13

# input Give me measured pKi, please, for this compound: `N#CC(C#N)=Cc1ccc(CN2CCN(c3ccc(Cl)cc3)CC2)[nH]1`
# output 4.31

# input Give me measured pKi, please, for this compound: `N#CC(C#N)=Cc1[nH]ccc1CN1CCN(c2ccccc2)CC1`
# output 5.40

# input Give me measured pKi, please, for this compound: `N#CC(C#N)=Cc1cc(CN2CCN(c3ccccc3)CC2)c[nH]1`
# output 5.73

# input Give me measured pKi, please, for this compound: `N#CC(C#N)=Cc1[nH]ccc1CN1CCN(c2ccc(Cl)cc2)CC1`
# output 5.05

---

System Name: UniProt Q95136
Sequence (Q95136 whole entry): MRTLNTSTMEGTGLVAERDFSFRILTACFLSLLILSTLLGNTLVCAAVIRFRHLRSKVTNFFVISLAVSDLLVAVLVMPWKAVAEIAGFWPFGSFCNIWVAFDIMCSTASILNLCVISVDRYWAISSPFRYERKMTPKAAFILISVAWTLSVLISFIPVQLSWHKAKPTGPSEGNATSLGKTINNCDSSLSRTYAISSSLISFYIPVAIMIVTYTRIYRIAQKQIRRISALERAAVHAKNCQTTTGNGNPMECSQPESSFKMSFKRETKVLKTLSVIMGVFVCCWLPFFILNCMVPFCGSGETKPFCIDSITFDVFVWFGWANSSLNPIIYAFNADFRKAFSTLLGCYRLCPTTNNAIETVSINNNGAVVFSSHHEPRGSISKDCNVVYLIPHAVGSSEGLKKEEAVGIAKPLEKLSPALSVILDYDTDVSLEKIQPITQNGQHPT
Protocol: Ability to displace D1 selective radioligand [3H]-SCH- 23390 in bovine striatal membrane preparations was determined
Reported Ki values for a set of compounds
Dear colleague, please return just the value in µM, with no unit written.

Below, each entry is followed by its recorded Ki result.
N#CC(C#N)=Cc1cc(CN2CCN(c3ccc(Cl)cc3)CC2)c[nH]1 | 5.3
N#CC(C#N)=Cc1[nH]ccc1CN1CCN(c2ccc(Cl)cc2)CC1 | 13.5
N#CC(C#N)=Cc1ccc(CN2CCN(c3ccccc3)CC2)[nH]1 | 58
N#CC(C#N)=Cc1cc(CN2CCN(c3ccccc3)CC2)c[nH]1 | 7.2
N#CC(C#N)=Cc1[nH]ccc1CN1CCN(c2ccccc2)CC1 | 22

As a next step, examine the compound that follows.
# input Please tell me the measured Ki for `N#CC(C#N)=Cc1ccc(CN2CCN(c3ccc(Cl)cc3)CC2)[nH]1` ; system: UniProt Q95136.
# output 39.5

---

System Name: D(2) dopamine receptor (Homo sapiens, UniProt P14416)
Sequence (P14416 whole entry): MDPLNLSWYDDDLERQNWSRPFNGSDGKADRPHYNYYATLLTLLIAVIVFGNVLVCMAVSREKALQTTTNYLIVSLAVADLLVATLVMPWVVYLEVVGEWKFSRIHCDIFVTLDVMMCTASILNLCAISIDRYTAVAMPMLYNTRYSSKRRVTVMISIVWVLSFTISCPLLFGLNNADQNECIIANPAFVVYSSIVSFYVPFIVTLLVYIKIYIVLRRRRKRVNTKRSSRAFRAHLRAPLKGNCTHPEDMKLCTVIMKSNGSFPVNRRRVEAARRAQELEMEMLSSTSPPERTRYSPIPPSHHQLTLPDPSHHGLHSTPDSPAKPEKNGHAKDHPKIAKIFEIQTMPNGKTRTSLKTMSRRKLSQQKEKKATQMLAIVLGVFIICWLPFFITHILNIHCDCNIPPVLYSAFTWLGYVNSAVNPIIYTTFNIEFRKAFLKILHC
Protocol: Ability to displace [3H]spiperone from the cloned human Dopamine receptor D2S stably expressed in Chinese hamster ovary (CHO) cells was determined.
Assay type: cell-based
Reported pKi values for a set of molecules
Hey, just a heads up that pKi is the negative log base 10 of the concentration in molar.

Below, each entry is followed by its recorded pKi result.
N#CC(C#N)=Cc1cc(CN2CCN(c3ccc(Cl)cc3)CC2)c[nH]1 | 4.99
N#CC(C#N)=Cc1[nH]ccc1CN1CCN(c2ccccc2)CC1 | 4.89
N#CC(C#N)=Cc1ccc(CN2CCN(c3ccc(Cl)cc3)CC2)[nH]1 | 4.23
N#CC(C#N)=Cc1[nH]ccc1CN1CCN(c2ccc(Cl)cc2)CC1 | 4.82

# input Give me measured pKi, please, for this molecule: `N#CC(C#N)=Cc1cc(CN2CCN(c3ccccc3)CC2)c[nH]1`
# output 6.01
